Every entry's value here was drawn from ChEMBL document CHEMBL1201862.

Tested on: PC-3
Assay: NCI tumour cell line growth inhibition, 48 h
The source made the active and inactive calls. Cut-off read from the data, not from the text of the source: active = GI50 up to about 1.1 µM and inactive = higher.
outcome_measure: GI50

Report measured GI50; entry is "CCOC(=O)c1ccc(NCC#CCN2CCCCC2)cc1"
> 100 µM (inactive)

Report measured GI50; entry is "COc1ccc(NC(=S)c2ccc([N+](=O)[O-])o2)cc1"
1.32 µM (inactive)

Report measured GI50; entry is "C[C@H]1/C(=C/C(=O)OCCN(C)C)CC[C@H]2[C@H]1C(=O)C[C@H]1C(C)(C)[C@@H](O)CC[C@]21C"
> 100 µM (inactive)

Report measured GI50; entry is CC1N=C(c2ccccc2)OC1=O (centres undefined)
> 100 µM (inactive)

Report measured GI50; entry is "CCc1nn(CN2CCOCC2)c(=S)n1/N=C/c1ccc(-c2ccc(Cl)cc2)o1"
> 100 µM (inactive)

Report measured GI50; entry is "COc1ccc(-c2c(-c3ccccc3)c(C)c3ccccn23)cc1"
84.3 µM (inactive)

Report measured GI50; entry is "C/C(=N\Nc1cc(CN2CCCC2)c(-c2ccc(Cl)cc2)nn1)C(=O)O"
> 100 µM (inactive)

Report measured GI50; entry is COC1=CC(=O)C(C2CC(=O)c3c(O)cc(O)cc3O2)=CC1=O (centres undefined)
16.5 µM (inactive)

Report measured GI50; entry is "Cn1c(=O)cc(N2CCCC2)[nH]c1=O"
> 100 µM (inactive)

Report measured GI50; entry is CCOc1ccccc1NC(=O)C(=O)C(/C(=N/N)C(=O)OC)c1nc2ccc([N+](=O)[O-])cc2nc1O (centres undefined)
> 100 µM (inactive)

Report measured GI50; entry is O=C(O)C1C2CCC(O2)C1C(=O)Nc1cccc2cccnc12 (centres undefined)
> 100 µM (inactive)

Report measured GI50; entry is "O=C(Nc1ccc(Cl)cc1)NS(=O)(=O)c1coc2cc(F)ccc2c1=O"
> 100 µM (inactive)

Report measured GI50; entry is "CC(C)(C)OC(=O)n1c2ccccc2c2c(=O)nc(N3CCCCC3)sc21"
> 100 µM (inactive)

Report measured GI50; entry is "O=c1c2cnccc2cc2c3ccccc3ccn12"
77.8 µM (inactive)

Report measured GI50; entry is CC1CCC2(CC1)N=C1CCC(C)CC1C1(CCC(C)CC1)N2 (centres undefined)
41.2 µM (inactive)

Report measured GI50; entry is "CC(=O)OCc1cn(S(=O)(=O)c2ccc(C)cc2)cn1"
> 100 µM (inactive)

Report measured GI50; entry is Fc1ccc(C(OCCN2CC3CC2CN3CCCc2ccccc2)c2ccc(F)cc2)cc1 (centres undefined)
5.98 µM (inactive)

Report measured GI50; entry is COC(=O)C1(Cc2ccc3c(c2)CCC3)Cc2ccc3c(c2C1)CCC3 (centres undefined)
16.9 µM (inactive)

Report measured GI50; entry is "OC[C@@H](O)[C@H](O)[C@@H](O)/C=N/Nc1ccc(Cl)nn1"
> 100 µM (inactive)

Report measured GI50; entry is "CCn1c(CCCc2nc3c(=O)n(C)c(=O)n(C)c3[nH]2)nc2c1c(=O)n(C)c(=O)n2C"
> 100 µM (inactive)

Report measured GI50; entry is "Cn1c2ccccc2c(=O)c2cccc(C(=O)NCC(=O)O)c21"
> 100 µM (inactive)

Report measured GI50; entry is "O=C1CCCC2=C1CC1=C(CCCC1=O)N2c1cccc([N+](=O)[O-])c1"
> 100 µM (inactive)

Report measured GI50; entry is O=C(O)CC(Sc1ccccc1)c1ccccc1 (centres undefined)
> 100 µM (inactive)

Report measured GI50; entry is "COc1ccc(C(=O)c2sc(N(C)C)nc2-c2ccccc2)cc1"
28.9 µM (inactive)

Report measured GI50; entry is CC(C)N(C)C(=O)C12C3C4C1C1C2C3C41C#N (centres undefined)
> 100 µM (inactive)

Report measured GI50; entry is "CCCC(=O)OCC(COC(=O)CCC)OC(=O)CCC"
99.3 µM (inactive)

Report measured GI50; entry is Cc1ccc(S(=O)(=O)N/N=C2\C3CC4CC(C3)C2C4)cc1 (centres undefined)
> 100 µM (inactive)

Report measured GI50; entry is "O=C1CCC(=O)N1CNc1ccc2c(c1)S(=O)(=O)c1ccccc1O2"
> 100 µM (inactive)

Report measured GI50; entry is "c1c[nH]c(CN2CCN(Cc3ncc[nH]3)CC2)n1"
> 100 µM (inactive)

Report measured GI50; entry is "CCN(CC)CCN1c2ccccc2Sc2ccc3ccccc3c21"
6.73 µM (inactive)

Report measured GI50; entry is c1ccc(COC[C@H]2C3OCC([C@H](OCc4ccccc4)[C@H]3OCc3ccccc3)N2Cc2ccccc2)cc1 (some centres undefined)
20.2 µM (inactive)

Report measured GI50; entry is CC(C)(C)OC(=O)NNCC(O)COc1ccccc1 (centres undefined)
> 100 µM (inactive)

Report measured GI50; entry is "CC(C)=CCOc1cc(NC(=S)c2ccsc2C)ccc1Cl"
17.8 µM (inactive)

Report measured GI50; entry is "CSc1ccc(/C=C2\N=C(c3ccccc3)N(c3nc4c(Cl)cc(Cl)cc4s3)C2=O)cc1"
20.4 µM (inactive)
